- Measurement description: protein stability index of a GFP-peptide fusion (yeast GPS) (PSI 1-4); higher = more stable; sorted into four equal gates, so the index is relative within each strain
- Experimental parameters: san1∆
Measurement name: protein stability index

Record IGGSLARIALRHLEKEG [RPS25A] , field protein stability index: 1.82

====

- Measurement description: protein stability index of a GFP-peptide fusion (yeast GPS) (PSI 1-4); higher = more stable; sorted into four equal gates, so the index is relative within each strain
- Experimental parameters: ubr1∆
Measurement name: protein stability index
Number, no unit, nothing else.

Residue codes	protein stability index
QPKDLRAKKTRALRRAL [RPL35A]	3.1
LINDSYINDVHLLYPPH [SSN8]	3.25
LFGSPPFILEYDLMAPN [YMR129W/POM152]	2.94

Here is the next item to consider.
Documented protein stability index of MLPPKSVKFTHIAHTLP [SSN2] : 1.82
